Origin of values: ChEMBL document CHEMBL1134790

Ki values recorded for UniProt:P30543

// below: answered molecules
Nc1nc(C#CCCC2CCCC2)nc2c1ncn2C1O[C@H](CO)[C@@H](O)[C@H]1O (stereo partly drawn) ... 3.4 nM
Nc1nc(OCCO)nc2c1ncn2C1O[C@H](CO)[C@@H](O)[C@H]1O (stereo partly drawn) ... 690 nM
CCNC(=O)[C@H]1OC(n2cnc3c(N)nc(C#CNCCc4ccc(F)cc4)nc32)[C@H](O)[C@@H]1O (stereo partly drawn) ... 7.7 nM
CCCCCCOc1nc(N)c2ncn(C3O[C@H](CO)[C@@H](O)[C@H]3O)c2n1 (stereo partly drawn) ... 160 nM
CCOCCCc1nc(N)c2ncn(C3O[C@H](CO)[C@@H](O)[C@H]3O)c2n1 (stereo partly drawn) ... 12.8 nM
CCCCc1nc(N)c2ncn(C3O[C@H](CO)[C@@H](O)[C@H]3O)c2n1 (stereo partly drawn) ... 2.8 nM
Cc1ccc(CCOc2nc(N)c3ncn(C4O[C@H](CO)[C@@H](O)[C@H]4O)c3n2)cc1 (stereo partly drawn) ... 11 nM

Proceeding to the next molecule to report its Ki.
[in] Report Ki from UniProt:P30543 testing of CCNC(=O)[C@H]1OC(n2cnc3c(N)nc(C#CNCCc4ccccc4)nc32)[C@H](O)[C@@H]1O (stereo partly drawn)
[out] 9.7 nM

* * *

target: Adenosine receptor A2a (Rattus norvegicus)
Ki values by entry
Lab book: enter the figure in nM, no units written.

// below: answered compounds
CCC(CC)CCOc1nc(N)c2ncn(C3O[C@H](CO)[C@@H](O)[C@H]3O)c2n1 (stereo partly drawn) ... 530
Nc1nc(OCC2CCCCC2)nc2c1ncn2C1O[C@H](CO)[C@@H](O)[C@H]1O (stereo partly drawn) ... 3200
Nc1nc(C#CC2CCCC2)nc2c1ncn2[C@@H]1O[C@H](CO)[C@@H](O)[C@H]1O ... 12
Nc1nc(OC2CCCC2)nc2c1ncn2[C@@H]1O[C@H](CO)[C@@H](O)[C@H]1O ... 1000
Nc1nc(OCCC2CCCCC2)nc2c1ncn2[C@@H]1O[C@H](CO)[C@@H](O)[C@H]1O ... 22

[in] Name the recorded Ki of the item Nc1nc(OCCCC2CCCCC2)nc2c1ncn2C1O[C@H](CO)[C@@H](O)[C@H]1O (stereo partly drawn) in your answer.
[out] 22

[in] Name the recorded Ki of the item Nc1nc(OCCCCc2ccccc2)nc2c1ncn2[C@@H]1O[C@H](CO)[C@@H](O)[C@H]1O in your answer.
[out] 170

[in] Name the recorded Ki of the item Nc1nc(OCCCCCc2ccccc2)nc2c1ncn2C1O[C@H](CO)[C@@H](O)[C@H]1O (stereo partly drawn) in your answer.
[out] 53

[in] Name the recorded Ki of the item CCNC(=O)[C@H]1OC(n2cnc3c(N)nc(CC4CCC(CO)CC4)nc32)[C@H](O)[C@@H]1O (stereo partly drawn) in your answer.
[out] 0.48

[in] Name the recorded Ki of the item CCCCOc1nc(N)c2ncn(C3O[C@H](CO)[C@@H](O)[C@H]3O)c2n1 (stereo partly drawn) in your answer.
[out] 270

[in] Name the recorded Ki of the item Nc1nc(C#CCCc2ccccc2)nc2c1ncn2[C@@H]1O[C@H](CO)[C@@H](O)[C@H]1O in your answer.
[out] 37

[in] Name the recorded Ki of the item Nc1nc(OCCCCC2CCCCC2)nc2c1ncn2C1O[C@H](CO)[C@@H](O)[C@H]1O (stereo partly drawn) in your answer.
[out] 18

* * *

Ki values recorded for Adenosine receptor A2a (Rattus norvegicus)
Lab book: enter the figure in nM, no units written.

// below: answered compounds
Nc1nc(C#CCCC2CCCCC2)nc2c1ncn2C1O[C@H](CO)[C@@H](O)[C@H]1O (some centres undefined) ... 26
CCNC(=O)[C@H]1OC(n2cnc3c(N)nc(CC4CCC(C(=O)O)CC4)nc32)[C@H](O)[C@@H]1O (some centres undefined) ... 20.1
COc1ccccc1CCOc1nc(N)c2ncn(C3O[C@H](CO)[C@@H](O)[C@H]3O)c2n1 (some centres undefined) ... 36

[in] Name the recorded Ki of the item CCNC(=O)[C@H]1OC(n2cnc3c(N)nc(NCCc4ccc(OCC(=O)O)cc4)nc32)[C@H](O)[C@@H]1O (some centres undefined) in your answer.
[out] 42

* * *

log10(Ki) values by entry
target: Adenosine receptor A2a (Rattus norvegicus, UniProt P30543); assay: biochemical
Sequence (P30543 whole entry): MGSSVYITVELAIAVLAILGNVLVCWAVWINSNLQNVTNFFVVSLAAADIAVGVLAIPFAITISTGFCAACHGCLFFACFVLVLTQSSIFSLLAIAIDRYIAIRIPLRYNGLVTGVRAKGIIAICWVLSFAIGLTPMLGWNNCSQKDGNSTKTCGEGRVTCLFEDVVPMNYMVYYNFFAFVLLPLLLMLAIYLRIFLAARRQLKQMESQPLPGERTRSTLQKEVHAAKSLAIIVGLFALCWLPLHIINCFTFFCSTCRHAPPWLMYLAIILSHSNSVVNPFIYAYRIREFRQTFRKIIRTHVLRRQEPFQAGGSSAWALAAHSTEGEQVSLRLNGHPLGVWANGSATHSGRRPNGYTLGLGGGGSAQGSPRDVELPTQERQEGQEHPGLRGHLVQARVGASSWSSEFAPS
Description: Binding affinity towards adenosine A2A receptor in rat brain striatum
Friendly reminder: values = log10 of Ki, unit nM.

// below: answered molecules
CCC(CC)COc1nc(N)c2ncn(C3O[C@H](CO)[C@@H](O)[C@H]3O)c2n1 (some centres undefined) ... 3.66
Nc1nc(OCCc2ccc(F)cc2)nc2c1ncn2[C@@H]1O[C@H](CO)[C@@H](O)[C@H]1O ... 1.99
Nc1nc(Oc2ccccc2)nc2c1ncn2C1O[C@H](CO)[C@@H](O)[C@H]1O (some centres undefined) ... 3.76
COc1cccc(CCOc2nc(N)c3ncn(C4O[C@H](CO)[C@@H](O)[C@H]4O)c3n2)c1 (some centres undefined) ... 2.51
CCc1nc(N)c2ncn(C3O[C@H](CO)[C@@H](O)[C@H]3O)c2n1 (some centres undefined) ... 1.33
CCCOCc1nc(N)c2ncn(C3O[C@H](CO)[C@@H](O)[C@H]3O)c2n1 (some centres undefined) ... 1.03
CC(C)(C)OC(=O)C1CCCN1C[C@@H](O)[C@H](Cc1ccccc1)NC(=O)[C@H](CC(N)=O)NC(=O)OCc1ccccc1 (some centres undefined) ... 0.34
CCNC(=O)[C@H]1OC(n2cnc3c(N)nc(CC4CCC(COC(C)=O)CC4)nc32)[C@H](O)[C@@H]1O (some centres undefined) ... 0.79

[in] Name the recorded log10(Ki) of the item COc1ccc(CCOc2nc(N)c3ncn(C4O[C@H](CO)[C@@H](O)[C@H]4O)c3n2)cc1OC (some centres undefined) in your answer.
[out] 1.60

* * *

molecular target: Adenosine receptor A1 (Rattus norvegicus, UniProt P25099); assay: biochemical
Sequence (P25099 whole entry): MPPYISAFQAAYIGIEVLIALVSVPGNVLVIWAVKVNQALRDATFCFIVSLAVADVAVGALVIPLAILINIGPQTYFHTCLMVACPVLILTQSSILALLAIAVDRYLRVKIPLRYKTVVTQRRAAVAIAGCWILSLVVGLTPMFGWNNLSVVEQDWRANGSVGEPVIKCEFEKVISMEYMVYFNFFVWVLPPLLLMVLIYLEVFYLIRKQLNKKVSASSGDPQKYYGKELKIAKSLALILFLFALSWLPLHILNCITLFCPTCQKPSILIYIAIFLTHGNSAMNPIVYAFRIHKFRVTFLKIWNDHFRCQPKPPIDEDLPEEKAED
Description: Binding affinity towards adenosine A1 receptor in rat brain cortex
Field: label. Allowed values: rule met (Ki < 1000 nM) or rule not met (Ki >= 1000 nM).

Nc1nc(OCCc2cccc(F)c2)nc2c1ncn2[C@@H]1O[C@H](CO)[C@@H](O)[C@H]1O (stereo in doubt; 24) ... rule met
Nc1nc(OC2CCCC2)nc2c1ncn2[C@@H]1O[C@H](CO)[C@@H](O)[C@H]1O ... rule not met
Nc1nc(OCCC2CCCCC2)nc2c1ncn2[C@@H]1O[C@H](CO)[C@@H](O)[C@H]1O ... rule not met
Nc1nc(OCCCCCc2ccccc2)nc2c1ncn2C1O[C@H](CO)[C@@H](O)[C@H]1O (stereo partly specified) ... rule met
CC(C)COc1nc(N)c2ncn(C3O[C@H](CO)[C@@H](O)[C@H]3O)c2n1 (stereo partly specified) ... rule not met
Nc1nc(OCCc2cccc(F)c2)nc2c1ncn2[C@@H]1O[C@H](CO)[C@@H](O)[C@H]1O (stereo in doubt; 92) ... rule met
Nc1nc(OCCCC2CCCCC2)nc2c1ncn2C1O[C@H](CO)[C@@H](O)[C@H]1O (stereo partly specified) ... rule not met
CCCCc1nc(N)c2ncn(C3O[C@H](CO)[C@@H](O)[C@H]3O)c2n1 (stereo partly specified) ... rule met

[in] Dear colleague, could you confirm whether Ki of Nc1nc(OCCCc2ccccc2)nc2c1ncn2[C@@H]1O[C@H](CO)[C@@H](O)[C@H]1O falls below 1000 nM? Thanks.
[out] rule not met

[in] Dear colleague, could you confirm whether Ki of CCNC(=O)[C@H]1OC(n2cnc3c(N)nc(C#CNCCc4ccc(CC(=O)O)cc4)nc32)[C@H](O)[C@@H]1O (stereo partly specified) falls below 1000 nM? Thanks.
[out] rule not met

[in] Dear colleague, could you confirm whether Ki of Nc1nc(OCCc2cccc(Cl)c2)nc2c1ncn2C1O[C@H](CO)[C@@H](O)[C@H]1O (stereo partly specified) falls below 1000 nM? Thanks.
[out] rule met

* * *

target: Adenosine receptor A2a (Rattus norvegicus)
pKi values by entry
Note on pKi: it is the negative log10 of concentration, concentration in mol/L.

// below: answered molecules
Nc1nc(C#CC2CCCCC2)nc2c1ncn2C1O[C@H](CO)[C@@H](O)[C@H]1O (stereo partly specified) ... 8.00
Nc1nc(OCc2ccccc2)nc2c1ncn2C1O[C@H](CO)[C@@H](O)[C@H]1O (stereo partly specified) ... 5.66
Nc1nc(OCCc2cccc(Cl)c2)nc2c1ncn2C1O[C@H](CO)[C@@H](O)[C@H]1O (stereo partly specified) ... 7.12
CCCCCC#Cc1nc(N)c2ncn([C@@H]3O[C@H](CO)[C@@H](O)[C@H]3O)c2n1 ... 8.27
CCNC(=O)[C@H]1OC(n2cnc3c(N)nc(CC4CCC(C(=O)OC)CC4)nc32)[C@H](O)[C@@H]1O (stereo partly specified) ... 8.35

Proceeding to the next molecule to report its pKi.
[in] Report pKi from Adenosine receptor A2a (Rattus norvegicus) testing of COc1ccc(CCOc2nc(N)c3ncn(C4O[C@H](CO)[C@@H](O)[C@H]4O)c3n2)cc1 (stereo partly specified)
[out] 7.49
